Entry source: patent US20230000842A1

Target: CLK2 kinase (Homo sapiens)
Sequence (P49760 whole entry): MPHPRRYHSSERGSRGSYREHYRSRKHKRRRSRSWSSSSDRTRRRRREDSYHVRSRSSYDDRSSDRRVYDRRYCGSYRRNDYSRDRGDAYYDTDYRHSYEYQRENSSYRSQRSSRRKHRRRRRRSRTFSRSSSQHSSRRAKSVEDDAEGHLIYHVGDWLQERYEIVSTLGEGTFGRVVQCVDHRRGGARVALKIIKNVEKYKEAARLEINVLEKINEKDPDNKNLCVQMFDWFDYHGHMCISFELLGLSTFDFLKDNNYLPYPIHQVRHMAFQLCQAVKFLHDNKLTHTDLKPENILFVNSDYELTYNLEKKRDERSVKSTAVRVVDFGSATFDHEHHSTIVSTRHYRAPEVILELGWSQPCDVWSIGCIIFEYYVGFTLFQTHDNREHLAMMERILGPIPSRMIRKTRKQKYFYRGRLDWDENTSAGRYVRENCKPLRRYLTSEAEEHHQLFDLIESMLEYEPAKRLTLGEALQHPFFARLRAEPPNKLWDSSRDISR
Assay: CLK2 kinase activity assay (Z-lyte FRET);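 further: FRET read-out as coumarin to fluorescein emission ratio, unphosphorylated peptide as 0% and phosphorylated peptide as 100% controls, duplicate reactions, non-linear regression fit of dose-response curves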
Settings: Z-lyte Ser/Thr 6 peptide, 60 μM ATP, 1 h at room temperature
Measurement Kind: EC50 (nM)

>  <Compound>
CC(C)(C)CC(=O)Nc1cncc(-c2cnc3[nH]nc(-c4cc5cnccc5[nH]4)c3c2)c1 [compound 424]

>  <Measurement Kind>
EC50

>  <Numeric Readout>
2

$$$$
>  <Compound>
CN1CCN(c2ccnc3[nH]c(-c4n[nH]c5ccc(-c6cncc(N)c6)nc45)nc23)CC1 [compound 216]

>  <Measurement Kind>
EC50

>  <Numeric Readout>
2

$$$$
>  <Compound>
CC(C)Nc1cncc(-c2cnc3[nH]nc(-c4nc5c(-c6ccoc6)nccc5[nH]4)c3c2)c1 [compound 237]

>  <Measurement Kind>
EC50

>  <Numeric Readout>
7

$$$$
>  <Compound>
c1cncc(-c2ccc3[nH]nc(-c4nc5c(-c6cccnc6)ccnc5[nH]4)c3n2)c1 [compound 185]

>  <Measurement Kind>
EC50

>  <Numeric Readout>
1

$$$$
>  <Compound>
c1cncc(-c2ccc3[nH]nc(-c4nc5c(-c6cccnc6)cccc5[nH]4)c3n2)c1 [compound 180]

>  <Measurement Kind>
EC50

>  <Numeric Readout>
2

$$$$
>  <Compound>
O=C(Nc1cncc(-c2ccc3[nH]nc(-c4cc5cccnc5[nH]4)c3c2)c1)C1CCCC1 [compound 429]

>  <Measurement Kind>
EC50

>  <Numeric Readout>
9

$$$$
>  <Compound>
O=C(Nc1ccc(CN2CCCC2)cc1)c1n[nH]c2ccc(-c3cncnc3)cc12 [compound 103]

>  <Measurement Kind>
EC50

>  <Numeric Readout>
2

$$$$
>  <Compound>
O=C(Nc1ccc(CN2CCCC2)cc1)c1n[nH]c2ccc(-c3cccnc3F)cc12 [compound 65]

>  <Measurement Kind>
EC50

>  <Numeric Readout>
1

$$$$
